As shown below, each of these compounds has a reported growth value.
Tested on: SK-MEL-28 melanoma
assayName: NCI-60 one-dose screen, 48 h (100 = growth as untreated, 0 = no growth, -100 = all killed)
measurementContext: 10 µM unless noted
This is part of a sample that, as a whole, favours compounds with a hit. Of some 83,000 tested, about 20% had one in any assay.

| compound | growth (%) |
| --- | --- |
| COc1cc(/C=C2\C(=O)Nc3ccccc32)cc(OC)c1O | 90.3 |
| Cc1ccc(S(=O)(=O)N2CCc3ccc(O)c4c3C2CCc2ccccc2-4)cc1 (configuration not stated) | 107 |
| O=S(=O)(Nc1ccc(Cl)c(Cl)c1)c1ccc(-c2cnc(C3CC3)o2)cc1 | 58.3 |
| C=CC[P+](c1ccccc1)(c1ccccc1)c1ccccc1 | 71.8 |
| Cc1nc2cc(Nc3nc(N4CCOCC4)nc(N4CCN(C)CC4)n3)ccc2n1Cc1ccccc1 | 106 |
| COc1cc(/C=C/c2cc(/C=C/c3ccc(O)c(OC)c3)n(-c3ccccc3)n2)ccc1O | -6.73 |
| Cc1nc2cc(Nc3nc(Nc4ccc(F)cc4)nc(-c4ccc(Cl)cc4)n3)ccc2n1Cc1ccccc1 | 92.6 |
| CCOC(=O)c1cn2c3c(cc(F)cc3c1=O)C(CC)c1ccccc1C2 (configuration not stated) | 98.9 |
| COc1ccc(-c2nc3sc(C)nn3c2-c2nc3cc(C)c(C)cc3[nH]2)cc1 | 96 |
| O=C(COc1ccc(/C=C2\CSc3ccccc3C2=O)cc1)c1ccc(Cl)cc1 | 124 |
| O=c1[nH]c(-c2ccccn2)nc2sc3c(c12)CCCCCC3 | 40.1 |
| Cc1ccc(-c2c3c(N)c4c(nc3nc3c2c(C)nn3-c2ccccc2)CCCC4)cc1 | 99.8 |
| Cc1cc(=O)[nH]n1-c1cc(Cl)ccc1N | 115 |
| O=[N+]([O-])c1ccc(C=C2C(Cl)=C(Cl)C(Cl)=C2Cl)cc1 | 107 |
| COc1ccc(/C=C/C(=O)N2CCC(O)CC2)cc1OC1CCCC1 | 115 |
| O=c1[nH]c(-c2ccncc2)nc2sc3c(c12)CCCCCC3 | 101 |
| O=C1CC(c2ccsc2)c2snc(-c3ccc(Cl)cc3)c2N1 (configuration not stated) | 45.4 |
| COc1c(Cl)ccc2c(-c3nc4cc(Cl)c(F)cc4s3)cc(=O)oc12 | 111 |
| CCOC(=O)c1c(Cl)c2c(n1Cc1cc(OC)cc(OC)c1)-c1oncc1CCC2 | 40.7 |
| OC[C@@H](O)[C@@H](O)CO | 112 |
| O=C1NC(=S)S/C1=C\c1cccc([N+](=O)[O-])c1 | 112 |
| COC(=O)[C@@]12CC[C@@H](C)[C@]3(C[C@@H](c4ccoc4)OC3=O)[C@H]1CC[C@@H]1O[C@@]12C | 103 |

---

Test system: UO-31 renal
assayName: NCI-60 one-dose screen, 48 h (100 = growth as untreated, 0 = no growth, -100 = all killed)
measurementContext: 10 µM unless noted
Compounds without any hit were thinned out: in the full panel of roughly 83,000, 20% have a hit.
The label is yes (1) for growth below 70% and no (0) for growth equal to or exceeding 70%.

| mol | labelValue |
| --- | --- |
| Cc1ccc(C(=O)O[C@H](C(=O)O)[C@H](OC(=O)c2ccc(C)cc2)C(=O)O)cc1 | no (0) |
| COc1ccc(NC(=O)c2ccc3c(c2)nc(-c2ccc(Cl)cc2)n3-c2cc(C(C)(C)C)[nH]n2)cc1 | yes (1) |
| O=C(COc1ccc(/C=C2\CSc3ccccc3C2=O)cc1)c1ccc(Cl)cc1 | no (0) |
| COc1cccc(Nc2nc(NCCO)c3ccccc3n2)c1 | no (0) |
| O=C1C=CC(=O)N1CCCCCCCCCCN1C(=O)C=CC1=O | yes (1) |
| C[C@@H](Oc1cc(-c2cnn(C3CC4(CNC4)C3)c2)cnc1N)c1c(Cl)ccc(F)c1Cl | yes (1) |
| COc1ccc(-n2c(SCc3cc(OC)c(OC)c(OC)c3)nc3ccc(C)cc3c2=O)c(OC)c1 | yes (1) |

---

System: SNB-19 CNS
assayName: NCI-60 one-dose screen, 48 h (100 = growth as untreated, 0 = no growth, -100 = all killed)
measurementContext: 10 µM unless noted
The panel holds about 83,000 compounds, 20% with a hit somewhere; the sample as a whole holds those more often.
As shown below, each of these molecules has a reported growth value.
measuredProperty: growth (%)

| molecule | readingUnit | quantitativeResult |
| --- | --- | --- |
| COc1ccc(/C=N/NC(=O)c2cnn3c2NC(c2ccccc2)C3)cc1OC1CCCC1 (stereo not given) | % | 87.7 |
| COc1ccc(-c2nc3sc(C)cn3c2/C=C/C(=O)c2cc(OC)c(OC)c(OC)c2)cc1 | % | 75.6 |
| CCCCCCCC/C=C\CCCCCCCCOc1cccc(CC(=O)NCC[N+](C)(C)C)c1 | % | 60.1 |
| CCOC(=O)c1cnn(CC(O)c2ccc(F)cc2)c1NC(=O)Nc1ccccc1F (stereo not given) | % | 98.3 |
| C(=C\c1ccccc1)/CN1CCN(C(c2ccccc2)c2ccccc2)CC1 | % | 96.3 |

---

Tested on: OVCAR-3 ovarian
assayName: NCI-60 one-dose screen, 48 h
measurementContext: 10 µM unless noted
About 83,000 compounds went through this panel and 20% of them were active in at least one assay; those are over-represented in the sample as a whole. Active and inactive are the calls of the source. How the source made its calls: active means growth percent below 10; inactive means the rest.
Outcomes: active, inactive

| compound | labelValue |
| --- | --- |
| CCCCC(O)Cn1ncc(C(=O)OCC)c1NC(=O)NCc1ccccc1C(F)(F)F (stereo not drawn) | inactive |
| COc1ccc(-c2nc3sc(C)cn3c2/C=C/C(=O)c2cc(OC)c(OC)c(OC)c2)cc1 | inactive |
| CCN(CC)CCCNc1ccc(C)c2sc3ccccc3c(=O)c12 | inactive |
| CCCC1=NNC(=O)C1 | inactive |
| Cc1nn(CC(=O)O)c2c1C(=O)CC(C)(C)C2 | inactive |
| Cc1cc(Cl)c2c(Cl)ccc(Cl)c2n1 | inactive |
| Oc1ccc(Cl)cc1CNc1nc2ccccc2[nH]1 | active |
| O=C1CC(c2ccsc2)c2snc(-c3ccc(Cl)cc3)c2N1 (stereo not drawn) | active |
| COc1nc2c(cc1S(=O)(=O)c1ccccc1)CCc1c-2cnn1-c1ccccc1 | inactive |
| Cc1nc(NC(=O)COc2cccc(/C=C3\COc4ccccc4C3=O)c2)sc1C | active |
| COc1ccc(C2OCC(C)(C)CO2)cc1OC | inactive |
| CCCCc1ccc(C(O)(CCN2CC3CCC(CC3)C2)c2ccccc2)cc1 (stereo not drawn) | inactive |
| O=[N+]([O-])c1ccc2nc(N/N=C/c3ccc(O)cc3)sc2c1 | inactive |
| CC(=O)c1cc(C)c(OC(=O)c2ccccc2)c(C)c1 | inactive |
| CCN1CCN(c2nc3ccccc3c3c(=O)c4cc(F)ccc4sc23)CC1 | inactive |
| COc1c(O)c2c3c(c1OC)-c1ccccc1CC3N(S(=O)(=O)c1ccc(C)cc1)CC2 (stereo not drawn) | active |
| O=C1/C(=C/c2ccccc2F)CNC/C1=C\c1ccccc1F | active |
| Cc1nc2cc(Nc3nc(N4CCOCC4)nc(N4CCN(C)CC4)n3)ccc2n1Cc1ccccc1 | inactive |
| CCCCC(CCCC)(S(=O)(=O)CC)S(=O)(=O)CC | inactive |
| Brc1ccccc1Nc1ccc2nnc(-c3ccncc3)n2n1 | inactive |
| COc1ccc2c(c1)c(=O)oc1c(C)c(OCC(C)=O)ccc12 | inactive |
| CN1CCN(CCCn2c3c(sc4ncccc43)c(=O)n3nnc(-c4ccccc4)c23)CC1 | active |
| NS(=O)(=O)c1ccc(C(=O)N/N=C(\CS(=O)(=O)c2ccccc2)c2cc3cc(Br)ccc3o2)cc1 | inactive |

---

Tested on: BT-549 breast
assayName: NCI-60 one-dose screen, 48 h
measurementContext: 10 µM unless noted
Compounds without any hit were thinned out: in the full panel of roughly 83,000, 20% have a hit. Calls of active or inactive are those of the source. Rule for the calls: active = growth percent below 10; inactive = the rest.
Outcomes: 1 for active, 0 for inactive

| molecule | labelValue |
| --- | --- |
| CN1CCN(c2nc(-c3ccncc3)nc3sc4c(c23)CCCCCC4)CC1 | 0 |
| Brc1ccc(Br)nn1 | 1 |
| COc1ccc(C2SC(C)C(=O)N2CCc2cccs2)cc1OC (stereo unspecified) | 0 |
| Nc1c(Br)cc(Br)cc1-c1n[nH]c(=O)[nH]c1=O | 0 |
| COc1nc2c(cc1S(=O)(=O)c1ccccc1)CCc1c-2cnn1-c1ccccc1Cl | 0 |
| ONc1nc(NO)c2[nH]cnc2n1 | 0 |

---

As shown below, each of these molecules has a reported growth value.
Test system: EKVX NSCLC
assayName: NCI-60 one-dose screen, 48 h (100 = growth as untreated, 0 = no growth, -100 = all killed)
measurementContext: 10 µM unless noted
About 83,000 compounds went through this panel and 20% of them were active in at least one assay; those are over-represented in the sample as a whole. Calls of active or inactive are those of the source. Rule for the calls: active = growth percent below 10; inactive = the rest.

| molecule | growth |
| --- | --- |
| O=c1ccc2ccccc2o1 | 109% (inactive) |
| NC(=S)N/N=C1\c2ccccc2-c2c(F)c(F)c(F)c(F)c21 | 87.3% (inactive) |
| O=C(N/N=C/c1ccc(OC(F)F)c(OC2CCCC2)c1)c1cnn2c1NC(c1ccccc1)C2 (stereo unspecified) | 91.5% (inactive) |
| O=[N+]([O-])c1ccc(C=C2C(Cl)=C(Cl)C(Cl)=C2Cl)cc1 | 91.6% (inactive) |
| CCCCC1COc2cccc3c(SCC(=O)N(C)c4cccc5ccccc45)cc[n+]1c23 (stereo unspecified) | 109% (inactive) |
| Cc1ccccc1-n1nnc(C(=O)Nc2ccc(-c3ccccc3)cn2)c1C | 34.8% [50 µM] (inactive) |
| CCCN(CCC)c1ccc(/C=C/c2ccc3cc(OCC)ccc3n2)cc1 | 86.3% (inactive) |
| COc1cc2oc(-c3ccc(O)cc3)cc(=O)c2c(O)c1I | 87.8% (inactive) |
| O=C(N/N=C(\CS(=O)(=O)c1ccccc1)c1cc2ccccc2oc1=O)c1ccccc1 | 101% (inactive) |
| O=S(=O)(Nc1ccc(Cl)c(Cl)c1)c1ccc(-c2cnc(C3CC3)o2)cc1 | 33.8% (inactive) |
| COc1ccc(OC)c(/C=C2\Oc3cc(O)ccc3C2=O)c1 | 91.4% (inactive) |
